system: 994946-033-R-J1-PDC complex spheroid viability; test: Anticancer human tumor 994946-033-R-J1-PDC patient-derived melanoma cell line growth inhibition [POLQ]; details: second compound 10 µM; first compound 10 µM; stronger effect = lower value
# Lookup of reported viability, T/C keyed by entry
Note: unit % is implicit; provide only the numeric part.

// worked examples, viability, T/C included
INSERT INTO measurements (compound, measured) VALUES
  ('COc1cccc2c1C(=O)c1c(O)c3c(c(O)c1C2=O)CC(O)(C(=O)CO)CC3OC1CC(N)C(O)C(C)O1 (stereo not given) + COC1C(OC(N)=O)C(O)C(Oc2ccc3c(O)c(NC(=O)c4ccc(O)c(CC=C(C)C)c4)c(=O)oc3c2C)OC1(C)C', 0.88),
  ('COc1cc(C2c3cc4c(cc3C(OC3OC5COC(C)OC5C(O)C3O)C3COC(=O)C23)OCO4)cc(OC)c1O (stereo not given) + Nc1ccc(C#CCN(C(=O)Cc2ncc(C(F)(F)F)cc2C(F)(F)F)c2ccc(F)cc2)nn1', 7.34),
  ('O=C(c1cc(Cc2n[nH]c(=O)c3ccccc23)ccc1F)N1CCN(C(=O)C2CC2)CC1 + Nc1ccc(C#CCN(C(=O)Cc2ncc(C(F)(F)F)cc2C(F)(F)F)c2ccc(F)cc2)nn1', 36.8),
  ('C#Cc1c(F)ccc2cc(O)cc(-c3ncc4c(N5CC6CCC(C5)N6)nc(OCC56CCCN5CC(F)C6)nc4c3F)c12 (stereo not given) + Cc1cccc(N(C)C(=O)C2C(O)CCN2c2nc(C)cc(C(F)(F)F)c2C#N)c1', 4.03),
  ('CC1COCCN1c1cc(-c2ccnn2C)c2ccnc(-c3ccn[nH]3)c2n1 (stereo not given) + Nc1ccc(C#CCN(C(=O)Cc2ncc(C(F)(F)F)cc2C(F)(F)F)c2ccc(F)cc2)nn1', 15.8);

Request: Form field: reported viability, T/C of CC(C)n1c(=O)n(C)c2cnc3cc(F)c(-c4ccc(OCCCN5CCCCC5)nc4)cc3c21 + Nc1ccc(C#CCN(C(=O)Cc2ncc(C(F)(F)F)cc2C(F)(F)F)c2ccc(F)cc2)nn1
Result: 70.8

Request: Form field: reported viability, T/C of CCCS(=O)(=O)Nc1ccc(F)c(C(=O)c2c[nH]c3ncc(-c4ccc(Cl)cc4)cc23)c1F + Cc1cccc(N(C)C(=O)C2C(O)CCN2c2nc(C)cc(C(F)(F)F)c2C#N)c1
Result: 17.1

Request: Form field: reported viability, T/C of COc1cccc2c1C(=O)c1c(O)c3c(c(O)c1C2=O)CC(O)(C(=O)CO)CC3OC1CC(N)C(O)C(C)O1 (stereo not given) + Cc1cccc(N(C)C(=O)C2C(O)CCN2c2nc(C)cc(C(F)(F)F)c2C#N)c1
Result: 0.65

Request: Form field: reported viability, T/C of O=c1[nH]cc(F)c(=O)[nH]1 + Cc1cccc(N(C)C(=O)C2C(O)CCN2c2nc(C)cc(C(F)(F)F)c2C#N)c1
Result: 43

Request: Form field: reported viability, T/C of CC1COCCN1c1cc(C2(S(C)(=N)=O)CC2)nc(-c2ccnc3[nH]ccc23)n1 (stereo not given) + Cc1cccc(N(C)C(=O)C2C(O)CCN2c2nc(C)cc(C(F)(F)F)c2C#N)c1
Result: 41.3

###

test system: 994946-033-R-J1-PDC complex spheroid viability; experiment: Anticancer human tumor 994946-033-R-J1-PDC cell line growth inhibition [POLQ]; conditions: curve of first compound; second compound 0.316 µM;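 also: spheroids exposed to drugs for 7 days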
# Lookup of reported pIC50 keyed by entry
The read-out pIC50 is expressed as -log10 of concentration in moles per litre.

INSERT INTO assay_data (compound, measured_endpoint, measured) VALUES
  ('CC[C@@]1(O)C(=O)OCc2c1cc1n(c2=O)Cc2cc3c(CN(C)C)c(O)ccc3nc2-1 + Cc1cccc(N(C)C(=O)C2C(O)CCN2c2nc(C)cc(C(F)(F)F)c2C#N)c1', 'pIC50', 7.70);

Request: Form field: reported pIC50 of COc1cc(C2c3cc4c(cc3C(OC3OC5COC(C)OC5C(O)C3O)C3COC(=O)C23)OCO4)cc(OC)c1O (stereo not given) + COC1C(OC(N)=O)C(O)C(Oc2ccc3c(O)c(NC(=O)c4ccc(O)c(CC=C(C)C)c4)c(=O)oc3c2C)OC1(C)C
Result: 6.60

Request: Form field: reported pIC50 of COc1cc(C2c3cc4c(cc3C(OC3OC5COC(C)OC5C(O)C3O)C3COC(=O)C23)OCO4)cc(OC)c1O (stereo not given) + Cc1cccc(N(C)C(=O)C2C(O)CCN2c2nc(C)cc(C(F)(F)F)c2C#N)c1
Result: 6.60

Request: Form field: reported pIC50 of CC(C)n1c(=O)n(C)c2cnc3cc(F)c(-c4ccc(OCCCN5CCCCC5)nc4)cc3c21 + Cc1cccc(N(C)C(=O)C2C(O)CCN2c2nc(C)cc(C(F)(F)F)c2C#N)c1
Result: 5.26

###

System: 994946-033-R-J1-PDC complex spheroid viability
Assay: Anticancer human tumor 994946-033-R-J1-PDC cell line growth inhibition [POLQ];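 also: spheroids exposed to drugs for 7 days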
Settings: curve of first compound; second compound 10 µM
Method: Multicellular complex tumor spheroid response to Polymerase (POL) inhibitors (novobiocin, ART-558, RP6685) in combination with a variety of drugs and investigational agents in selected tumor cell lines The POL inhibitors (novobiocin, ART-558, and RP6685) were evaluated both individually and in combination with standard of care and investigational anticancer small molecules within a complex spheroid model of solid tumors. . […]
pIC50: −log10 of the molar value.
# Lookup of reported pIC50 keyed by entry

// worked examples, pIC50 included
INSERT INTO assay_data (compound, measured_endpoint, measured) VALUES
  ('CCc1cc2c(N3CCc4c(cc(Cn5ccnc5)cc4-c4cn(C)nc4C(F)(F)F)C3=O)cc(C)nc2c(OC)n1 + Cc1cccc(N(C)C(=O)C2C(O)CCN2c2nc(C)cc(C(F)(F)F)c2C#N)c1', 'pIC50', '< 5.00'),
  ('COc1cc2cc(C(=O)CCC(=O)O)sc2cc1OC + Cc1cccc(N(C)C(=O)C2C(O)CCN2c2nc(C)cc(C(F)(F)F)c2C#N)c1', 'pIC50', '< 5.00'),
  ('COc1cccc2c1C(=O)c1c(O)c3c(c(O)c1C2=O)CC(O)(C(=O)CO)CC3OC1CC(N)C(O)C(C)O1 (stereo not given) + COC1C(OC(N)=O)C(O)C(Oc2ccc3c(O)c(NC(=O)c4ccc(O)c(CC=C(C)C)c4)c(=O)oc3c2C)OC1(C)C', 'pIC50', '> 7.50'),
  ('CC[C@@]1(O)C(=O)OCc2c1cc1n(c2=O)Cc2cc3c(CN(C)C)c(O)ccc3nc2-1 + COC1C(OC(N)=O)C(O)C(Oc2ccc3c(O)c(NC(=O)c4ccc(O)c(CC=C(C)C)c4)c(=O)oc3c2C)OC1(C)C', 'pIC50', 7.69);

Turning now to a further record.
Request: Form field: reported pIC50 of CC(=O)O[C@H]1C(=O)[C@@]2(C)[C@H]([C@H](OC(=O)c3ccccc3)[C@]3(O)C[C@H](OC(=O)[C@H](O)[C@@H](NC(=O)c4ccccc4)c4ccccc4)C(C)=C1C3(C)C)[C@]1(OC(C)=O)CO[C@@H]1C[C@@H]2O + Nc1ccc(C#CCN(C(=O)Cc2ncc(C(F)(F)F)cc2C(F)(F)F)c2ccc(F)cc2)nn1
Result: > 8.02

###

test system: 994946-033-R-J1-PDC complex spheroid viability; assay: Anticancer human tumor 994946-033-R-J1-PDC cell line growth inhibition [POLQ]; details: second compound 10 µM; first compound 3.16 µM; stronger effect = lower value;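 also: spheroids exposed to drugs for 7 days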;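 as to viability, T/C: 100% = DMSO vehicle treated spheroids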
# Lookup of reported viability, T/C keyed by entry
Note: unit % is implicit; provide only the numeric part.

// worked examples, viability, T/C included
INSERT INTO measurements (compound, assay_system, measured_endpoint, measured) VALUES
  ('O=C(Nc1ccc(O)c(NS(=O)(=O)c2ccc(F)cc2)c1)c1ccc(-c2ccccc2)cc1 + Nc1ccc(C#CCN(C(=O)Cc2ncc(C(F)(F)F)cc2C(F)(F)F)c2ccc(F)cc2)nn1', '994946-033-R-J1-PDC complex spheroid viability', 'viability, T/C', 76),
  ('CNCc1ccc(-c2[nH]c3cc(F)cc4c3c2CCNC4=O)cc1 + Nc1ccc(C#CCN(C(=O)Cc2ncc(C(F)(F)F)cc2C(F)(F)F)c2ccc(F)cc2)nn1', '994946-033-R-J1-PDC complex spheroid viability', 'viability, T/C', 96),
  ('COc1cc(C2c3cc4c(cc3C(OC3OC5COC(C)OC5C(O)C3O)C3COC(=O)C23)OCO4)cc(OC)c1O (stereo unspecified) + Nc1ccc(C#CCN(C(=O)Cc2ncc(C(F)(F)F)cc2C(F)(F)F)c2ccc(F)cc2)nn1', '994946-033-R-J1-PDC complex spheroid viability', 'viability, T/C', 14.5),
  ('O=c1[nH]cc(F)c(=O)[nH]1 + COC1C(OC(N)=O)C(O)C(Oc2ccc3c(O)c(NC(=O)c4ccc(O)c(CC=C(C)C)c4)c(=O)oc3c2C)OC1(C)C', '994946-033-R-J1-PDC complex spheroid viability', 'viability, T/C', 58.6);

Request: Form field: reported viability, T/C of O=C(c1cc(Cc2n[nH]c(=O)c3ccccc23)ccc1F)N1CCN(C(=O)C2CC2)CC1 + Nc1ccc(C#CCN(C(=O)Cc2ncc(C(F)(F)F)cc2C(F)(F)F)c2ccc(F)cc2)nn1
Result: 80.1

Request: Form field: reported viability, T/C of COc1cc(C2c3cc4c(cc3C(OC3OC5COC(C)OC5C(O)C3O)C3COC(=O)C23)OCO4)cc(OC)c1O (stereo unspecified) + Cc1cccc(N(C)C(=O)C2C(O)CCN2c2nc(C)cc(C(F)(F)F)c2C#N)c1
Result: 14.8

Request: Form field: reported viability, T/C of COc1cccc2c1C(=O)c1c(O)c3c(c(O)c1C2=O)CC(O)(C(=O)CO)CC3OC1CC(N)C(O)C(C)O1 (stereo unspecified) + Nc1ccc(C#CCN(C(=O)Cc2ncc(C(F)(F)F)cc2C(F)(F)F)c2ccc(F)cc2)nn1
Result: 0.94

Measured values drawn from PubChem BioAssay AID1963827 for this set.
